# MEASUREMENT_TARGET: human Farnesoid X receptor ligand-binding domain/Gal4 DNA binding domain chimera (Homo sapiens (Human), UniProt Q96RI1)
# Sequence (Q96RI1 262-486, change not shown): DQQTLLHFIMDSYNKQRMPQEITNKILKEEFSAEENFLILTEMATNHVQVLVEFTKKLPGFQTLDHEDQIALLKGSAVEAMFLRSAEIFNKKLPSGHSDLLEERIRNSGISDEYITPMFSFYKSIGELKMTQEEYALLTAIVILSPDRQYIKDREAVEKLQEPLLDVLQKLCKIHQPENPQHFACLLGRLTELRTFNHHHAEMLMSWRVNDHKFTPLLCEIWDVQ
# Sequence (P04386 1-147 partner): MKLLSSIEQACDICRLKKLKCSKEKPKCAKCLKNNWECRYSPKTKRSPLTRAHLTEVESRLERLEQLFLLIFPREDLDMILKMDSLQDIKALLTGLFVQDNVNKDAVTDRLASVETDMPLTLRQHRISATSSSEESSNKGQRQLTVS
# EXPERIMENT: Cell-based assay of FXR activation (FXR-UAS-bla HEK 293T beta-lactamase reporter)
# CONDITION_SET: HEK-293T; extent of activation relative to GW4064; cellular FXR beta-lactamase reporter assay; read-out: % Efficacy
MEASUREMENT_TYPE: Emax

Report Emax for every entry below.
1. O=C(O)c1cc(O[C@@H]2CCOC2)c2nc(N3C[C@@H]4C[C@H]3C[C@H]4OCc3c(-c4c(Cl)cccc4Cl)noc3C3CC3)sc2c1 [Compound I-261]
2. CS(=O)(=O)NC(=O)CCc1ccc(N2C[C@@H]3C[C@H]2C[C@H]3OCc2c(-c3c(Cl)cccc3Cl)noc2C2CC2)c(F)c1 [Compound I-236]
3. O=C(NS(=O)(=O)CCC1CCOC1)c1ccc(N2C(=O)[C@@H]3C[C@H]2C[C@H]3OCc2c(-c3c(Cl)cccc3Cl)noc2C2CC2)cc1 (stereo partly drawn) [Compound I-342]

Output:
1: 110%; 2: 95%; 3: 125%

====

# MEASUREMENT_TARGET: ligand binding domain of human FXR (Homo sapiens (Human))
# Sequence (Q96RI1 262-486): as the sequence (Q96RI1 262-486, change not shown) above
# EXPERIMENT: FXR ligand binding assay (LanthaScreen TR-FRET, SRC2-2 peptide recruitment)
# CONDITION_SET: -log EC50, concentration required to produce 50% activation
# Description: The affinity of FXR ligands for the ligand binding domain of FXR was determined using a commercially available human FXR ligand binding assay (LanthaScreen, Thermofisher Cat # PV4833). […] Test compounds are dissolved in DMSO and a 3-fold serial dilution series is generated, then further diluted into assay buffer. […] The reaction is incubated at room temperature for 1 hour, then the FRET signal is measured as the ratio of the 520 nm/495 nm emission following excitation at 340 nm. […]
MEASUREMENT_TYPE: pEC50
One number for each entry.

Report pEC50 for every entry below.
1. O=C(O)c1ccc(N2C[C@@H]3C[C@H]2C[C@H]3OCc2c(-c3c(Cl)cccc3Cl)noc2C2CC2)c(C(F)(F)F)c1 [Compound I-106]
2. O=C(O)c1ccc(N2C(=O)[C@@H]3C[C@H]2C[C@H]3OCc2c(-c3c(Cl)cccc3Cl)noc2C2CC2)nn1 [Compound I-325]
3. CCCS(=O)(=O)NC(=O)c1cnc(N2C[C@@H]3C[C@H]2C[C@H]3OCc2c(-c3c(Cl)cccc3Cl)noc2C2CC2)c(F)c1 [Compound I-206]
4. CCCCCS(=O)(=O)NC(=O)c1ccc(N2C[C@@H]3C[C@H]2C[C@H]3OCc2c(-c3c(Cl)cccc3Cl)noc2C2CC2)c(F)c1 [Compound I-191]
5. C[C@H]1[C@H]2C[C@H](C[C@@H]2OCc2c(-c3c(Cl)cccc3Cl)noc2C2CC2)N1c1ccc(C(=O)O)cc1 [Compound I-361]
6. NS(=O)(=O)[C@@H]1CCC[C@H]1OC(=O)c1ccc(N2C(=O)[C@@H]3C[C@H]2C[C@H]3OCc2c(-c3c(Cl)cccc3Cl)noc2C2CC2)cc1 [Compound I-345]
7. O=C(O)c1cc(OC(F)(F)F)c2nc(N3C[C@@H]4C[C@H]3C[C@H]4OCc3c(-c4c(Cl)cccc4Cl)noc3C3CC3)sc2c1 [Compound I-16]
8. O=C(O)c1cc(C2CCC2)c2nc(N3C(=O)[C@@H]4C[C@H]3C[C@H]4OCc3c(-c4c(Cl)cccc4Cl)noc3C3CC3)sc2c1 [Compound I-296]

Output:
8.6
6.6
8.4
8.4
6
8.6
8.8
7.6

Report pEC50 for every entry below.
1. O=C(NS(=O)(=O)C1CC1)c1ccc(N2C[C@@H]3C[C@H]2C[C@H]3OCc2c(-c3c(Cl)cccc3Cl)noc2C2CC2)nc1 [Compound I-205]
2. O=C(O)c1cc([C@@H]2CCOC2)c2nc(N3C[C@@H]4C[C@H]3C[C@H]4OCc3c(-c4c(F)cccc4Cl)noc3C3CC3)sc2c1 [Compound I-266]
3. O=C(NS(=O)(=O)[C@@H]1CCC[C@H]1O)c1ccc(N2C(=O)[C@@H]3C[C@H]2C[C@H]3OCc2c(-c3c(Cl)cccc3Cl)noc2C2CC2)cn1 [Compound I-350]
4. O=C(NCCS(=O)(=O)O)c1ccc(N2C[C@@H]3C[C@H]2C[C@H]3OCc2c(-c3c(Cl)cccc3Cl)noc2C2CC2)cc1 [Compound I-166]

Output:
8.4
8.6
8.1
8.7

====

So I've got a bunch of compounds here, and I need their EC50 values.
# MEASUREMENT_TARGET: human Farnesoid X receptor ligand-binding domain/Gal4 DNA binding domain chimera (Homo sapiens (Human), UniProt Q96RI1)
# EXPERIMENT: Cell-based assay of FXR activation (FXR-UAS-bla HEK 293T beta-lactamase reporter)
# CONDITION_SET: cellular FXR beta-lactamase reporter assay, FXR-UAS-bla HEK 293T cells, 16 h; pEC50 = -log EC50
Give bare numbers, in nM.

Previously resolved entries follow.
1. O=C(NS(=O)(=O)C1CCOCC1)c1ccc(N2C[C@@H]3C[C@H]2C[C@H]3OCc2c(C3CCC4(CC3)CC4)noc2C2CC2)c(F)c1 ... 6.31
2. O=C(O)c1ccc(N2C(=O)[C@@H]3C[C@H]2C[C@H]3OCc2c(-c3c(Cl)cccc3Cl)noc2C2CC2)cc1F ... 2.51
3. CCCCCCCCS(=O)(=O)NC(=O)c1ccc(N2C[C@@H]3C[C@H]2C[C@H]3OCc2c(-c3c(Cl)cccc3Cl)noc2C2CC2)c(F)c1 ... 0.2
4. O=C(O)CCCc1ccc(N2C[C@@H]3C[C@H]2C[C@H]3OCc2c(-c3c(Cl)cccc3Cl)noc2C2CC2)cc1 ... 20
5. O=C(O)c1ccc(N2C[C@@H]3C[C@H]2C[C@H]3OCc2c(-c3c(F)cccc3Cl)noc2C2CC2)cc1 ... 7.94

Then this compound:
Task: Entry O=C(O)CCc1ccc(N2C(=O)[C@@H]3C[C@H]2C[C@H]3OCc2c(-c3c(Cl)cccc3Cl)noc2C2CC2)c(F)c1 needs its EC50 filled in; supply it.
Output: 100

====

# MEASUREMENT_TARGET: human Farnesoid X receptor ligand-binding domain/Gal4 DNA binding domain chimera (Homo sapiens (Human))
# EXPERIMENT: Cell-based assay of FXR activation (FXR-UAS-bla HEK 293T beta-lactamase reporter)
# CONDITION_SET: cellular FXR beta-lactamase reporter assay, FXR-UAS-bla HEK 293T cells, 16 h; pEC50 = -log EC50
I'd appreciate it if you marked entries True when EC50 is lower than 3 nM and False when it is not.

1. O=C(O)c1ccc2nc(N3C[C@@H]4C[C@H]3C[C@@H]4OC(=O)c3c(-c4c(Cl)cccc4Cl)noc3C3CC3)sc2c1 [Compound I-35] ... False
2. O=C(O)c1cc(F)c2nc(N3C[C@@H]4C[C@H]3C[C@H]4OCc3c(-c4c(Cl)cccc4Cl)noc3C3CC3)sc2c1 [Compound I-12] ... True
3. O=C(CCc1ccc(N2C[C@@H]3C[C@H]2C[C@H]3OCc2c(-c3c(Cl)cccc3Cl)noc2C2CC2)c(F)c1)NS(=O)(=O)C1CC1 [Compound I-237] ... True
4. O=C(O)c1cc(OCC(F)(F)F)c2nc(N3C[C@@H]4C[C@H]3C[C@H]4OCc3c(-c4c(Cl)cccc4Cl)noc3C3CC3)sc2c1 [Compound I-17] ... True

Task: Find out if reported EC50 for O=C(NS(=O)(=O)CC1CCOCC1)c1ccc(N2C(=O)[C@@H]3C[C@H]2C[C@H]3OCc2c(-c3c(Cl)cccc3Cl)noc2C2CC2)cc1F [Compound I-333] is less than 3 nM
Output: True

Task: Find out if reported EC50 for Cc1cccc(C)c1-c1noc(C2CC2)c1CO[C@@H]1C[C@@H]2C[C@H]1C(=O)N2c1ccc(C(=O)O)cc1 [Compound I-308] is less than 3 nM
Output: False

====

So I've got a bunch of molecules here, and I need their Emax values.
# MEASUREMENT_TARGET: human Farnesoid X receptor ligand-binding domain/Gal4 DNA binding domain chimera (Homo sapiens (Human))
# EXPERIMENT: Cell-based assay of FXR activation (FXR-UAS-bla HEK 293T beta-lactamase reporter)
# CONDITION_SET: HEK-293T; extent of activation relative to GW4064; cellular FXR beta-lactamase reporter assay; read-out: % Efficacy
Answers are plain numbers, in %.

Previously resolved entries follow.
1. O=C(NS(=O)(=O)c1cn[nH]c1)c1ccc(N2C[C@@H]3C[C@H]2C[C@H]3OCc2c(-c3c(Cl)cccc3Cl)noc2C2CC2)cc1 ... 100
2. N#Cc1cc(C(=O)O)ccc1N1C[C@@H]2C[C@H]1C[C@H]2OCc1c(-c2c(Cl)cccc2Cl)noc1C1CC1 ... 106

Task: Entry O=C(O)c1ccc(N2C[C@@H]3C[C@H]2C[C@H]3OCc2c(-c3c(Cl)cccc3Cl)noc2C2CC2)c(C(F)(F)F)c1 needs its Emax filled in; supply it.
Output: 106
